# System: HLA class I (e.g. HLA-A2) expressing adherent 293T cells
# Test method notes: CTL assay on reverse transfected microarray (caspase activation, fluorescent Z-VAD)
# Assay type: cell-based, human
# Run conditions: HLA-matched CD8+ T cells from prostate cancer patients incubated 4 hours on array; red fluorescent signal = positive response
Observation type: Patient ID with positive hit

# Molecule, Measurement
measured = [
    ("No. 10: DATAS fragment; transferrin receptor (p90, CD71); novel exon (nucleic acid, listed as Homo sapiens) DNA: GTGGCGAGGCGGTTCGGGACGGAGGACGCGCTAGTGTTCTTCTGTGTGGCAGTTCAGAATGATGGATCAAGCTAGATCAGCATTCTCTAACTTGTTTGGTGGAGAACCATTGTCATATACCCGGTTCAGCCTGCTCTCC", "MSMPB"),
    ("No. 15: DATAS fragment; GenBank Human mRNA AF116698 (intronic hit); genomic hit (nucleic acid, listed as Homo sapiens) DNA: CGGCGCACCTGGTACGTGGTGTATGTTCCATTTGTGCTGGCCACGGTGATGATGATGATGATGCCATCTCTCCGGCTACACTGCGAGCACAGATCACAGCTCTCTGTAGCTGATGCTGGCTCTACCCACTGTATTCGGG", "MSMPB"),
    ("No. 9: DATAS fragment; protein kinase C, zeta; novel exon (nucleic acid, listed as Homo sapiens) DNA: GGGCAAAGGATGTTGCCCCTGTCCTGAAGGCTGTCGCCCGATCGCTCTATCCAAGGCTGCCCTGGGGCAGCGTCACCTGGGGGTCCTGCGGGGGCTTCTCAGCACAGCATCCAGCACTGCCACCTAGTGTGTTCCCGTCACGTCTCCTCCCCCCG", "EYGRT"),
]
